List of switch fluorescence ratio values.
Test system: ATP;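 further: ATP exposure 15 min at 22 °C before imaging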
run description: switch fluorescence ratio, 500 uM ATP over buffer (Cy3 cluster intensity, sum of 5 cycles each) (fold (ratio)); higher = stronger signal-on switching upon ATP binding; sequences stand for … in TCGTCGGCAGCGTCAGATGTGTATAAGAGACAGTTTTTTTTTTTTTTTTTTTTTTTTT…TC
measurement parameters: aptamer strand: ATP DNA aptamer (quencher-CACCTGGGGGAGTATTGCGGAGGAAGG + anchor), 100 nM annealed; ATP concentration: 500 uM
Form field (numeric): enter value without unit.

Look up switch fluorescence ratio: ATTGGCTTTT 0.965

Try this sequence next: GAGTTGGTAG 0.969

Try this sequence next: TGAAGTTTTT 1.02

Try this sequence next: TTAGTTTGCA 1.02

Try this sequence next: CGGGGTGAAC 0.994

---
Look up switch fluorescence ratio: GGACGGGGAC 1.12

Try this sequence next: TATTGGTTAA 0.974

Try this sequence next: TCAGGATTGT 0.967

Try this sequence next: GAAGGGCGTT 0.982

Try this sequence next: GTTGGAGGA 1.04

Try this sequence next: TGATGTTAGA 1

---

System: ATP;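 further: ATP exposure 15 min at 22 °C before imaging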
run description: switch fluorescence ratio, 500 uM ATP over buffer (Cy3 cluster intensity, sum of 5 cycles each) (fold (ratio)); higher = stronger signal-on switching upon ATP binding; sequences stand for … in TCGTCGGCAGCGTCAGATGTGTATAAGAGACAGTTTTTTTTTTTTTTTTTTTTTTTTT…TC
measurement parameters: aptamer strand: ATP DNA aptamer (quencher-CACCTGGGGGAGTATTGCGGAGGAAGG + anchor), 100 nM annealed; ATP concentration: 500 uM
property measured: switch fluorescence ratio
Form field (numeric): enter value without unit.

Examples with their reported switch fluorescence ratio follow.
Please state recorded switch fluorescence ratio (tested on ATP) of TTGGGCGTGT 0.987

Try this sequence next: TTGTGTGGTG 0.98

Try this sequence next: GGGTTTTAGG 0.999

Try this sequence next: GCCTTTGCAT 1.04

Try this sequence next: GAAAAAACGT 1.05

Try this sequence next: CATGAATCTA 0.98

Try this sequence next: ATTTGACTTC 1.12

Try this sequence next: GTACCTTGAT 1.05

---
Please state recorded switch fluorescence ratio (tested on ATP) of CTAATTTTTC 0.988

Try this sequence next: GTTTTTAACT 1.01

Try this sequence next: ATGATCTTCC 2.3

Try this sequence next: ATGGGGATTT 0.991

Try this sequence next: AAAGGGGACG 1.01

Try this sequence next: AGGGGGCATC 1.01

Try this sequence next: TTTTTAGAG 0.999

Try this sequence next: GGGTGGGCAT 1.03

Try this sequence next: AATTTATAGC 0.977

---

List of switch fluorescence ratio values.
Tested on: ATP;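 further: ATP exposure 15 min at 22 °C before imaging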
run description: switch fluorescence ratio, 500 uM ATP over buffer (Cy3 cluster intensity, sum of 5 cycles each) (fold (ratio)); higher = stronger signal-on switching upon ATP binding; sequences stand for … in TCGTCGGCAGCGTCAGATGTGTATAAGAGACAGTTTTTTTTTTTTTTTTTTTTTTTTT…TC
measurement parameters: aptamer strand: ATP DNA aptamer (quencher-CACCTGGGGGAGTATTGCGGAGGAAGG + anchor), 100 nM annealed; ATP concentration: 500 uM
Form field (numeric): enter value without unit.

Examples with their reported switch fluorescence ratio follow.
Look up switch fluorescence ratio: GAGTGGACGG 0.998

Try this sequence next: AATGTAGACT 1.02

Try this sequence next: GATGGAGGTT 0.996

Try this sequence next: CGGGTGAGGG 1.02

Try this sequence next: GGGGAAAATA 1.01

Try this sequence next: GGGAGTATAT 0.992

Try this sequence next: ATCGGTGTGT 0.989

Try this sequence next: GGGGGGATCC 0.996

---
Look up switch fluorescence ratio: TAAAAATACT 1.07

Try this sequence next: GATAGGGGTT 0.975

Try this sequence next: TCAGTATTTT 1.02

Try this sequence next: GGAGTTATAA 1.05

Try this sequence next: ATGTAAAATT 0.972

Data origin, for the record: the supplement of paper PMC10126150
